Collected set of pIC50 measured with Isocitrate dehydrogenase [NADP] cytoplasmic (Homo sapiens) across studies.
pIC50: −log10 of the molar value.

In the examples that follow, each entry is paired with its recorded pIC50.
{"Query smiles": "CC(C)[C@H]1COC(=O)N1c1ncnc(NCc2ccc(Oc3ccccc3)cc2)n1", "Result": "< 4.30"}
{"Query smiles": "C=CC(=O)N1CCC(N(C)Cc2ccc([C@H](C)Nc3ncc4c(n3)N(CC)C(=O)OC4)cc2)CC1", "Result": 5.49}
{"Query smiles": "C=CC(=O)N1CCN(Cc2ccc([C@H](C)Nc3ncc4ccc(=O)n(C(C)C)c4n3)cc2)CC1", "Result": 5.54}

Field: next molecule
Exam item: Would you kindly share the measured pIC50 for O=C1NC(=S)S/C1=C\c1cccc(OC(=O)c2cccc(F)c2)c1 ?
Marked response: 4.72
